Assay: clinical
Conditions: human, plasma, oral, 20 mg
ASSAY ENDPOINT: Tmax (h)
The figure you give is taken to be in h; do not add the unit.

So what's the measured Tmax for this one? O=C(NOC[C@H](O)CO)c1ccc(F)c(F)c1Nc1ccc(I)cc1F
2

----------
Test: clinical
Details: human, plasma, oral, 2 mg
ASSAY ENDPOINT: Tmax (h)
Give the value in h but do not write h after it.

Record request: Tmax value, item O=C(NOC[C@H](O)CO)c1ccc(F)c(F)c1Nc1ccc(I)cc1F
1

----------
Assay: clinical
Details: human, plasma, oral, 15 mg
ASSAY ENDPOINT: Tmax (h)
Give the quantity in h, number only.

# Tmax lookup, item O=C(NOC[C@H](O)CO)c1ccc(F)c(F)c1Nc1ccc(I)cc1F
1

Source listed as patent US20060154990A1.
